Hello, the source for this data is patent US20120083522A1, in case you need it.

Test system: human Factor XI mRNA
ASSAY_TEXT: Dose-dependent inhibition in HepG2 cells, lipofectin (Example 5)
Assay type: cell-based
TEST_PARAMETERS: 4.69 nM, 16 hours
percent inhibition of human Factor XI mRNA, relative to untreated control cells for assorted substances
VALUE_TYPE: percent inhibition of human Factor XI mRNA, relative to untreated control cells (%)

* 416850 (antisense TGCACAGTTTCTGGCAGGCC; 5-10-5 gapmer, wing sugar chemistry not given here, further chemistry not given here) [compound 416850] | 31
* 416864 (antisense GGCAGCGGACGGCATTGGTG; 5-10-5 gapmer, wing sugar chemistry not given here, further chemistry not given here) [compound 416864] | 34
* 417002 (antisense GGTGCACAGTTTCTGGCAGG; 2-13-5 gapmer, wing sugar chemistry not given here, further chemistry not given here) [compound 417002] | 26
